Values compiled from patent US7750006B2.

Item-by-item account of DEF (Dose Enhancing Factor)
- Test system: HeLa cells
- assay text: Dose Enhancing Factor: cell growth inhibition with bleomycin, SRB assay
- Assay type: cell-based
- test settings: test compound 25 μM, bleomycin 0.5 μg/ml

- smiles code: "O=C(Nc1cccc(Cc2n[nH]c(=O)c3ccccc23)c1)c1cccs1"
  DEF (Dose Enhancing Factor): 1.5
- smiles code: "O=C(O)COCC(=O)Nc1cc(Cc2n[nH]c(=O)c3ccccc23)ccc1N1CCOCC1"
  DEF (Dose Enhancing Factor): 1.2
- smiles code: "O=c1[nH]nc(Cc2ccccc2)c2ccccc12"
  DEF (Dose Enhancing Factor): 1.8
- smiles code: "O=c1[nH]nc(Cc2ccc(I)cc2)c2ccccc12"
  DEF (Dose Enhancing Factor): 1.9
- smiles code: "O=c1[nH]nc(Cc2ccc(O)cc2)c2ccccc12"
  DEF (Dose Enhancing Factor): 1.3
- smiles code: "O=c1[nH]nc(Cc2cccc(Oc3ccccc3)c2)c2ccccc12"
  DEF (Dose Enhancing Factor): 2.2
- smiles code: "O=c1[nH]nc(Cc2cccc(F)c2)c2ccccc12"
  DEF (Dose Enhancing Factor): 1.4
- smiles code: "CC(=O)Nc1ccc(Cc2n[nH]c(=O)c3ccccc23)cc1"
  DEF (Dose Enhancing Factor): 1.4
- smiles code: "COc1ccc(Cc2n[nH]c(=O)c3ccccc23)cc1"
  DEF (Dose Enhancing Factor): 1.3
- smiles code: "COC(=O)CSCc1n[nH]c(=O)c2ccccc12"
  DEF (Dose Enhancing Factor): 1.3
